Tested on: FLT4;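 note: KINOMEscan kinase panel screen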
conditionLabel: concentration: 1 μM, replicates: in singlicate; n = 1
Answer each item with its documented %Inh.
Numbers only, in %.

Consider the following illustrative entries.
>>> valueobserved("CN(c1ccc(F)c(NC(=O)c2cccc(OC(C)(C)C#N)c2Cl)c1)c1ccc2nc(NC(=O)C3CC3)sc2n1")
99.8
>>> valueobserved("CSc1ccc(NC2=C(c3ccc(Cl)cc3)C(=O)NC2=O)cc1 [SB-317658]")
3
>>> valueobserved("Cc1cccc(Nc2nc(NCCN)ncc2C(N)=O)c1 [GSK1292139]")
0

Return reported %Inh values for all items listed beneath this line.
1. CC(C)NCC(Cc1ccccc1)NC(=O)c1cc(Br)c(-c2ccnc3[nH]ccc23)s1.Cl.Cl (centres unmarked) [GSK1383281]
2. CN(C)CCNS(=O)(=O)c1ccc(-c2ccnc3[nH]ccc23)cc1 [GSK977620]
3. CC(C)c1nc(-c2cccc(NS(=O)(=O)c3c(F)cccc3F)c2)c(-c2ccnc(Nc3ccc(N4CCOCC4)nc3)n2)s1.Cl [GSK1723980]
4. NCCC(NC(=O)c1cc(Br)c(-c2ccnc3[nH]ccc23)s1)c1ccccc1.O=C(O)C(F)(F)F.O=C(O)C(F)(F)F (centres unmarked) [GSK1307810]
5. Cn1cc(-c2ccc3c(c2)CCN3C(=O)Cc2cc(F)cc(C(F)(F)F)c2)c2c(N)ncnc21 [GSK2635225]
6. COc1ccc(C2=C(Nc3cccc(O)c3)C(=O)NC2=O)cc1 [SB-390766]

48
15
99.9
39
30
35
